// Proteus mirabilis 525 MIC records
Value kind: MIC (µg/mL)

1. CO/N=C(\C(=O)NC1C(=O)N2C(C(=O)O)=C(COC(C)=O)CSC12)C1=CSCCO1 (stereo not shown) ... 0.78
2. CON=C(C(=O)NC1C(=O)N2C(C(=O)O)=C(CSc3nnnn3C)CS[C@H]12)C1=CSCCO1 (stereo partly shown) ... 0.78
3. CON=C(C(=O)NC1C(=O)N2C(C(=O)O)=C(COC(N)=O)CS[C@H]12)C1=CSCCO1 (stereo partly shown) ... 0.78
4. CON=C(C(=O)NC1C(=O)N2C(C(=O)O)=C(CSc3nncs3)CS[C@H]12)C1=CSCCS1 (stereo partly shown) ... 3.13
